I'd be grateful if you could share measured Ki for these entries.
- target or system: M2 muscarinic receptor (Rattus norvegicus, UniProt P10980)
- Construct: Submandibular glands and heart were isolated and placed in ice cold homogenising buffer; from tissue; host or cells: rat heart membrane homogenate
- Sequence (P10980 whole entry): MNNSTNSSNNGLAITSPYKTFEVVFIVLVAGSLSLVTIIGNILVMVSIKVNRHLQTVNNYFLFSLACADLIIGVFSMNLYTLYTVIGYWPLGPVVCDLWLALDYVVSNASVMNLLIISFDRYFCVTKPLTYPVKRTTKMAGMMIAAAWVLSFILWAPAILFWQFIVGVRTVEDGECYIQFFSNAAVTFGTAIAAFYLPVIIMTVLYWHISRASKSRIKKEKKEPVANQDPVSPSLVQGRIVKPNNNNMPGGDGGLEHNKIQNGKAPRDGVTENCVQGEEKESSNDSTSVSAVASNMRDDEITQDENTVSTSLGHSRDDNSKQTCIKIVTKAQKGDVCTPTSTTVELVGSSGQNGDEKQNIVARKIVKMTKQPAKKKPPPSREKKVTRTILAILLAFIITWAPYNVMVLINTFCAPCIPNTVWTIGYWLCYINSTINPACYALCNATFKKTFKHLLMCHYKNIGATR
- run description: [3H]-N-methylscopolamine radioligand binding assay, rat heart membranes
- condition summary: Table III; rat heart, [3H]NMS; read-out: M2 Ki (nm)

Which Ki is reported for this compound? O=C(NC1C2CN(CCc3ccc4occc4c3)CC21)C(O)(c1ccccc1)C1CCCCC1 (centres unmarked) 1590 nM

Also check O=C(NC1C2CN(CCc3ccc4c(c3)CCO4)CC21)C(O)(c1ccccc1)C1CCCCC1 (centres unmarked) > 1000 nM

Also check O=C(N[C@H]1[C@@H]2CN(Cc3ccccc3)C[C@@H]21)C(O)(c1ccccc1)C1CCCC1 (some centres unmarked) 3000 nM

Also check CC(C)=CCCN1CC2C(C1)C2NC(=O)C(O)(c1ccccc1)C1CCCC1 (centres unmarked) 1370 nM

Also check O=C(NC1C2CN(CCc3ccccc3)CC21)C(O)(c1ccccc1)C1CCCC1 (centres unmarked) 1420 nM

Also check O=C(NC1C2CN(CCc3ccc4c(c3)OCO4)CC21)C(O)(c1ccccc1)C1CCCCC1 (centres unmarked) > 1000 nM

Also check O=C(Cc1ccc2c(c1)CCO2)N1CC2C(C1)C2NC(=O)C(O)(c1ccccc1)C1CCCC1 (centres unmarked) > 10000 nM

Also check O=C(NC1C2CN(Cc3c(F)cccc3F)CC21)C(O)(c1ccccc1)C1CCCCC1 (centres unmarked) > 1000 nM

----------
I'd be grateful if you could share measured pKi for these entries.
- target or system: M3 muscarinic receptor (Rattus norvegicus)
- Construct: Submandibular glands and heart were isolated and placed in ice cold homogenising buffer; from tissue; host or cells: rat submandibular gland membrane homogenate
- run description: [3H]-N-methylscopolamine radioligand binding assay, rat submandibular gland membranes
- condition summary: Table III; rat submandibular gland, [3H]NMS; read-out: M3 Ki (nm)
A value of pKi is the negative decimal logarithm of a concentration given in moles per litre.

Report pKi for CC(C)(C)c1ccc(C(O)(C(=O)NC2C3CN(Cc4ccccc4)CC32)C2CCCCC2)cc1 (stereo not shown) tested on M3 muscarinic receptor (Rattus norvegicus). 6.42

Also check O=C(Cc1ccc2c(c1)CCO2)N1CC2C(C1)C2NC(=O)C(O)(c1ccccc1)C1CCCC1 (stereo not shown) 6.12

Also check O=C(N[C@H]1[C@@H]2CN(CCc3ccc4c(c3)CCO4)C[C@@H]21)C(O)(c1ccccc1)C1CCCC1 (stereo partly shown) 6.97

Also check O=C(NC1C2CN(Cc3cc(F)cc(F)c3)CC21)C(O)(c1ccccc1)C1CCCCC1 (stereo not shown) 6.28

Also check CC(C)=CCCN1CC2C(C1)C2NC(=O)C(O)(c1ccccc1)C1CCCC1 (stereo not shown) 7.48

Also check O=C(NC1C2CN(CCc3ccc4c(c3)CCO4)CC21)C(O)(c1ccccc1)C1CCCCC1 (stereo not shown) 6.82

Also check COc1ccc(C(O)(C(=O)NC2C3CN(CCC=C(C)C)CC32)C2CCCCC2)cc1 (stereo not shown) 6.62

----------
- target or system: M2 muscarinic receptor (Rattus norvegicus)
- Construct: Submandibular glands and heart were isolated and placed in ice cold homogenising buffer; from tissue; host or cells: rat heart membrane homogenate
- run description: [3H]-N-methylscopolamine radioligand binding assay, rat heart membranes
- condition summary: Receptor Binding Assay Ki (nM) M2
measured attribute: Ki
In your response, put the unit directly after the numeric value.

Which Ki is reported for this molecule? O=C(N[C@H]1[C@@H]2CN(Cc3ccccc3)C[C@@H]21)C(O)(c1ccccc1)C1CCCCC1 (stereo partly shown) 2260 nM

----------
- System: isolated rat bladder
- run description: tissue or blood
- Type: cell-based
- condition summary: Table II; rat bladder strips, antagonism of carbachol contraction; read-out: Functional Assay KB
measured attribute: Kb (nM)
Response body: numeric value in nM, unit text excluded.

Report Kb for CC(C)=CCCN1C[C@@H]2[C@H](C1)[C@H]2NC(=O)[C@](O)(c1ccccc1)C1CCCC1 tested on isolated rat bladder. 7.95

Also check O=C(N[C@H]1[C@@H]2CN(CCc3ccc4c(c3)OCO4)C[C@@H]21)[C@](O)(c1ccccc1)C1CCCC1 9.12

Also check CCN(CC)CC#CCOC(=O)C(O)(c1ccccc1)C1CCCCC1 (stereo not shown) [Oxybutynin, oxybutynin, reference compound] 2

Also check CC(C)=CCCN1CC2C(C1)C2NC(=O)C(O)(c1ccccc1)C1CCCC1 (stereo not shown) 4

Also check CC(C)=CCCN1C[C@@H]2[C@H](C1)[C@H]2NC(=O)C(O)(c1ccccc1)C1CCCCC1 (stereo partly shown) 32.4

Also check O=C(NC1C2CN(CCc3ccc4c(c3)OCO4)CC21)C(O)(c1ccccc1)C1CCCC1 (stereo not shown) 5

Also check O=C(N[C@H]1[C@@H]2CN(Cc3ccccc3)C[C@@H]21)C(O)(c1ccccc1)C1CCCCC1 (stereo partly shown) 27.5

----------
- target or system: M3 muscarinic receptor (Rattus norvegicus, UniProt P08483)
- Construct: Submandibular glands and heart were isolated and placed in ice cold homogenising buffer; from tissue; host or cells: rat submandibular gland membrane homogenate
- Sequence (P08483 whole entry): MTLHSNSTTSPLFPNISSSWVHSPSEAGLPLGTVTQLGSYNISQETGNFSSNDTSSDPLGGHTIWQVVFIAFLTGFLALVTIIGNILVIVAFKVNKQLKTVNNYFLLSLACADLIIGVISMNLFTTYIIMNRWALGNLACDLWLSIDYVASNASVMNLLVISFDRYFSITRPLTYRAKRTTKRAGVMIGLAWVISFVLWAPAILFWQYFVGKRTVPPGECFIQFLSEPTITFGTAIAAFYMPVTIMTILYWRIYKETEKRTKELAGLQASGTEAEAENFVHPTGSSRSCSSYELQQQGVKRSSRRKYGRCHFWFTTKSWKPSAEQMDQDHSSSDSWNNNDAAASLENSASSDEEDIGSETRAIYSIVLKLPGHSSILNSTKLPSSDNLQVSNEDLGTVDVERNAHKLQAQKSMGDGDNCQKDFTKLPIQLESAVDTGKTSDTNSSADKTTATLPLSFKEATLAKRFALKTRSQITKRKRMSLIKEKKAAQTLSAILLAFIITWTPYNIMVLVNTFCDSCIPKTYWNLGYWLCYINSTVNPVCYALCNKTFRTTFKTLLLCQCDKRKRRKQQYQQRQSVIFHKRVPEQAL
- run description: [3H]-N-methylscopolamine radioligand binding assay, rat submandibular gland membranes
- condition summary: Table III; rat submandibular gland, [3H]NMS; read-out: M3 Pki (converted)
I'd be grateful if you could share measured Ki for these entries.
Response body: numeric value in nM, unit text excluded.

Report Ki for O=C(NC1C2CN(Cc3ccccc3)CC21)C(O)(c1ccccc1)C1CCCCCC1 (centres unmarked) [Compound No. 72] tested on M3 muscarinic receptor (Rattus norvegicus, UniProt P08483). 20.9

Also check O=C(N[C@H]1[C@@H]2CN(Cc3ccc4c(c3)OCO4)C[C@@H]21)C(O)(c1ccccc1)C1CCCCC1 (some centres unmarked) [Compound No. 42] 56.2

Also check O=C(NC1C2CN(CCc3ccccc3)CC21)C(O)(c1ccccc1)C1CCCC1 (centres unmarked) [Compound No. 67] 38.9

Also check CC(C)=CCCN1CC2C(C1)C2NC(=O)C(O)(c1ccccc1)C1CCCC1 (centres unmarked) [Compound No. 65] 29.5

Also check CC(C)=CCCN1C[C@@H]2[C@H](C1)[C@H]2NC(=O)[C@](O)(c1ccccc1)C1CCCC1 [Compound No. 81] 11.5

----------
- target or system: M3 muscarinic receptor (Rattus norvegicus, UniProt P08483)
- Construct: Submandibular glands and heart were isolated and placed in ice cold homogenising buffer; from tissue; host or cells: rat submandibular gland membrane homogenate
- run description: [3H]-N-methylscopolamine radioligand binding assay, rat submandibular gland membranes
- condition summary: Table III; rat submandibular gland, [3H]NMS; read-out: M3 Ki (nm)
I'd be grateful if you could share measured pKi for these entries.
A value of pKi is the negative decimal logarithm of a concentration given in moles per litre.

Which pKi is reported for this compound? O=C(NC1C2CN(CCc3ccc4occc4c3)CC21)C(O)(c1ccccc1)C1CCCCC1 (centres unmarked) 6.63

Also check CC(C)=CCCN1C[C@@H]2[C@H](C1)[C@H]2NC(=O)[C@](O)(c1ccccc1)C1CCCC1 7.91

Also check C#CCN1CC2C(C1)C2NC(=O)C(O)(c1ccccc1)C1CCCCC1 (centres unmarked) 6.37

Also check O=C(NC1C2CN(Cc3ccc(Br)cc3)CC21)C(O)(c1ccccc1)C1CCCCC1 (centres unmarked) 6.31

Also check O=C(N[C@H]1[C@@H]2CN(C3CC3)C[C@@H]21)C(O)(c1ccccc1)C1CCCCC1 (some centres unmarked) 5.81

Also check CC(C)=CCCN1C[C@@H]2[C@H](C1)[C@H]2NC(=O)C(O)(c1ccccc1)C1CCCCC1 (some centres unmarked) 7.33

Also check O=C(N[C@H]1[C@@H]2CN(Cc3ccc4c(c3)OCO4)C[C@@H]21)C(O)(c1ccccc1)C1CCCCC1 (some centres unmarked) 7.26

Also check Cc1ccc(S(=O)(=O)NC(=O)N2C[C@@H]3[C@H](C2)[C@H]3NC(=O)C(O)(c2ccccc2)C2CCCCC2)cc1 (some centres unmarked) 6.00

----------
- target or system: M3 muscarinic receptor (Rattus norvegicus)
- Construct: Submandibular glands and heart were isolated and placed in ice cold homogenising buffer; from tissue; host or cells: rat submandibular gland membrane homogenate
- run description: [3H]-N-methylscopolamine radioligand binding assay, rat submandibular gland membranes
- condition summary: Table III; rat submandibular gland, [3H]NMS; read-out: M3 Ki (nm)
measured attribute: pKi
A value of pKi is the negative decimal logarithm of a concentration given in moles per litre.

Which pKi is reported for this compound? Cc1cccc(N2CC3C(C2)C3NC(=O)C(O)(c2ccccc2)C2CCCC2)n1 (stereo not shown) 5.85

Also check O=C(Cc1ccc2c(c1)CCO2)N1CC2C(C1)C2NC(=O)C(O)(c1ccccc1)C1CCCCC1 (stereo not shown) 6.08

Also check Cc1ccc(C(O)(C(=O)NC2C3CN(Cc4ccccc4)CC32)C2CCCCC2)cc1 (stereo not shown) 5.92

Also check O=C(NC1C2CN(CCc3ccc4c(c3)OCO4)CC21)C(O)(c1ccccc1)C1CCCCC1 (stereo not shown) 7.01

Also check O=C(NC1C2CN(Cc3c(F)cccc3F)CC21)C(O)(c1ccccc1)C1CCCCC1 (stereo not shown) 5.77

Also check O=C(N[C@H]1[C@@H]2CN(Cc3ccccc3)C[C@@H]21)C(O)(c1ccccc1)C1CCCCC1 (stereo partly shown) 7.03

Also check O=C(N[C@H]1[C@@H]2CN(Cc3ccccc3)C[C@@H]21)C(O)(c1ccc(Oc2ccccc2)cc1)C1CCCCC1 (stereo partly shown) 6.43
